From: ChEMBL document CHEMBL1128490

molecular target: Glutamate NMDA receptor; experiment: Inhibition of [3H]MK-801 binding to NMDA receptor of rat cerebral cortical synaptic membrane
pIC50: −log10 of the molar value.
Parameter pIC50: see the listing below.
endpointName: pIC50

- lineNotation: "CCN(CC)C(=O)[C@@]1(c2ccccc2)C[C@H]1CO"
  testedTarget: "Glutamate NMDA receptor"
  relationSymbol: "<"
  readoutNumber: 4.00
- lineNotation: "CCN(CC)C(=O)[C@@]1(c2ccccc2)C[C@H]1CCN"
  testedTarget: "Glutamate NMDA receptor"
  relationSymbol: "="
  readoutNumber: 5.00
- lineNotation: "CCN(CC)C(=O)[C@@]1(c2ccccc2)C[C@H]1CN(C)C"
  testedTarget: "Glutamate NMDA receptor"
  relationSymbol: "="
  readoutNumber: 4.06
- lineNotation: "CCOC(=O)[C@@]1(c2ccccc2)C[C@H]1CN"
  testedTarget: "Glutamate NMDA receptor"
  relationSymbol: "<"
  readoutNumber: 4.00
- lineNotation: "NC[C@@H]1C[C@@]1(C(=O)O)c1ccccc1"
  testedTarget: "Glutamate NMDA receptor"
  relationSymbol: "<"
  readoutNumber: 4.00
- lineNotation: "CCN(CC)C(=O)[C@@]1(c2ccccc2)C[C@H]1CN"
  testedTarget: "Glutamate NMDA receptor"
  relationSymbol: "="
  readoutNumber: 5.20
- lineNotation: "CCN(CC)C(=O)[C@@]1(c2ccccc2)C[C@H]1CN=[N+]=[N-]"
  testedTarget: "Glutamate NMDA receptor"
  relationSymbol: "<"
  readoutNumber: 4.00
- lineNotation: "CCN(CC)C(=O)[C@@]1(c2ccccc2)C[C@H]1C=O"
  testedTarget: "Glutamate NMDA receptor"
  relationSymbol: "<"
  readoutNumber: 4.00
- lineNotation: "CCN(CC)C(=O)[C@@]1(c2ccccc2)C[C@H]1CNC"
  testedTarget: "Glutamate NMDA receptor"
  relationSymbol: "="
  readoutNumber: 4.89
- lineNotation: "CCN(CC)C(=O)[C@@]1(c2ccccc2)C[C@H]1Cn1ccnc1C"
  testedTarget: "Glutamate NMDA receptor"
  relationSymbol: "<"
  readoutNumber: 4.00
